meta.source: paper PMC4552634

# Tested on: P. falciparum stage V gametocytes
# Set-up: BacTiter-Glo ATP luminescence viability of purified stage V gametocytes in 384-well plates, per cent inhibition versus DMSO
# CONDITION: 48 h, 5 µM; inhibitor
Hit rate of the full screen: of about 13,000 compounds, about 3,200 (25%) showed an effect of 50% or more. This is one part of the list.
Output T for % Inhibition not less than 10%; output F otherwise.

INSERT INTO results (compound, discrete_label) VALUES
  ('Oc1ccc2[nH]c(-c3cccc(F)c3)nc2c1CN1CCC(O)(c2ccccc2)CC1', 'F'),
  ('CN1CCCC1CCNCc1ccc(-c2ccc(CNCCc3ccccc3)cn2)cc1 (stereo not drawn)', 'T'),
  ('C=Cc1cc(NC(=O)N2CCc3cc(OC)c(C(F)(F)F)cc32)cc(-c2cccnc2)c1', 'F'),
  ('C[C@@H](CC1CCCCC1)OC(=O)N(C)[C@@H]1CCN(C#N)C1', 'T'),
  ('O=C(c1cccc(-c2noc(C(F)(F)F)n2)c1)N1CCN(c2nsc3ccccc23)CC1', 'F');

**Query** Could you tell me if the measured % Inhibition of `Cc1ccc(NC(=O)c2ccc(CN3CCCN(CC4CCCCC4)CC3)cc2)cc1C` reaches 10% or more?
**Result** F

* * *

# System: P. falciparum stage V gametocytes
# Parameters: BacTiter-Glo ATP luminescence viability of purified stage V gametocytes in 384-well plates, per cent inhibition versus DMSO
# CONDITION: 48 h, 5 µM; inhibitor
Out of some 13,000 compounds screened, about 3,200 (25%) showed an effect of 50% or more. The list shows a part of the results.
ASSAY METRIC: % Inhibition (%)
One number for each entry, in %.

# batch: return % Inhibition for each of the 5 compounds below
1. CCCNCc1ccc(-c2ccc(CN(Cc3cnc(C)cn3)C(=O)/C=C/c3ccccc3C)cc2)nc1 [TCMDC-141545]
2. COc1ccc2nc3cc(Cl)ccc3c(NCCCCN)c2c1 [TCMDC-137526]
3. COc1ccc(NC(=O)N2CCc3ccc(OCCN(C(C)C)C(C)C)cc32)cc1C(F)(F)F [TCMDC-140253]
4. Cc1ncc(CN2CCC(C(=O)Nc3ccc(-c4nc5ccccc5o4)cc3)CC2)s1 [TCMDC-124675]
5. COc1ccc2nc3cc(Cl)ccc3c(NCCN(C)C)c2c1 [TCMDC-139093]

**Result**
[35.86, 92.71, -24.24, 0.01985, 54.53]

State recorded % Inhibition for all listed compounds.
1. CCCNCc1ccc(-c2ccc(CN(CCOC)C(=O)c3cnc(C)cn3)cc2)nc1 [TCMDC-141534]
2. Fc1cc(Cl)ccc1Nc1ccnc2cc(-c3ccc(CN4CCOCC4)o3)ccc12 [TCMDC-138393]
3. CCN(CC)c1ccc(C(c2ccc(N(CC)CC)cc2)c2cccc([N+](=O)[O-])c2)cc1 [TCMDC-131244]
4. O=C(/C=C/c1ccc(Cl)c(Cl)c1)NC1CCC(CN2CCC(c3cc4ccccc4[nH]3)CC2)CC1 (centres unmarked) [TCMDC-140236]
5. Cc1[nH]c(C)c(-c2ccc(Oc3ccc(Cl)c(Cl)c3)cc2)c(=O)c1Cl [TCMDC-137396]

**Result**
[98.71, 99.43, -3.754, 9.147, 73.66]

For every item in the list below, what is its measured % Inhibition?
1. CCCNCc1ccc(-c2ccc(CN(CCOC)C(=O)c3cscn3)cc2)nc1 [TCMDC-141525]
2. Cc1[nH]c(C)c(-c2ccc(Oc3ccc(Cl)cc3)c(Cl)c2)c(=O)c1Br [TCMDC-137409]
3. Fc1cc(Cl)ccc1Nc1ccnc2cc(-c3ccc(CN4CCSCC4)o3)ccc12 [TCMDC-138392]
4. CN1CCN(Cc2ccc(-c3ccc4c(Nc5cc(O)c(Cl)cc5F)ccnc4c3)o2)CC1 [TCMDC-138446]

**Result**
101.5
21.95
1.462
74.65
